Measurement protocol: yeast display, Sf9 membrane polyspecificity reagent, FACS + sequencing; frameworks hold sequencing errors
Metric name: polyreactivity (PSR sort gate)

• QVQLEESGGGLVQAGGSLRLSCAASGSIFSQYAMGWYRQAPGKERELVASITWRGGRTYYADSVKGRFTISRDNAKNTVYLQMNSLKPEDTAVYYCNRVYGAHHYYYGIGTYDYWGQGTQVTVSS = high polyreactivity
• QVQLVESGGGLVQAGGSLRLSCDASGRIFLHYAMRLYRQAPGTERELVAAISRSGGSTYYADSVKGRFTISRDNAKNTVYLQMNSLKPEDTAVYYCAADGPGDYLTLEWYWFTYYYWGQGTQVTVSS = high polyreactivity
